# testDetails: protein stability index of a GFP-peptide fusion (GPS, HEK-293T) (PSI 1-6); higher = more stable;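 also: 24-mer peptide tiles fused after GFP, lentivirally expressed, FACS-sorted into six equal bins by GFP/DsRed ratio, decoded by Illumina sequencing, PSI is the read-weighted mean bin number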
# assayContext: treatment: DMSO; c terminus: a fixed tail appended
Class assignment keyed on protein stability index, ranges lower band (below 3), central band (3 to below 4), upper band (4 or more)

[[record]]
sequencedata = "VKVPTTLAEYCIKTKVPSNDNSSD [UBE2R2]"
categorylabel = "upper band"

[[record]]
sequencedata = "MELSWGQSPGQPVQGGSEAWGPGT [TEX19]"
categorylabel = "central band"

[[record]]
sequencedata = "LALGRERLGEIHTLPLPASLKAYL [SPSB1]"
categorylabel = "lower band"

[[record]]
sequencedata = "YGLKPLTPNSKYVKLNVGGSLHYT [KCTD13]"
categorylabel = "lower band"

[[record]]
sequencedata = "LCEKEPLGNVLFSPICLSTSLSLA [SERPINB5]"
categorylabel = "lower band"

[[record]]
sequencedata = "HLEEPGETQNAFLNERKQASAIKK [CHGB]"
categorylabel = "upper band"

[[record]]
sequencedata = "NWIELLSGETWNPLKLHYQLRNVR [GOLPH3]"
categorylabel = "lower band"

[[record]]
sequencedata = "LRSPRKFGVAGRSCQEVLRKGCLR [DFFB]"
categorylabel = "lower band"

[[record]]
sequencedata = "LRRVLDELTLARTDLEMQIEGLKE [KRT16]"
categorylabel = "lower band"

[[record]]
sequencedata = "QGQAAAPASGSGADSEPARHIFSF [TRIM55]"
categorylabel = "central band"

[[record]]
sequencedata = "MGQWQLEVGDPAPLGAGNLGPELI [DPCD]"
categorylabel = "central band"

[[record]]
sequencedata = "PGVFVLLACGTMSSTCGQLASYPL [SLC25A25]"
categorylabel = "central band"


----------
# testDetails: protein stability index of a GFP-peptide fusion (GPS, HEK-293T) (PSI 1-6); higher = more stable
# assayContext: treatment: DMSO; c terminus: a fixed tail appended
Label scheme for protein stability index: lower than 4 is criterion not met, 4 and above is criterion met.

[[record]]
sequencedata = "LPSERLDFSMAEALNQEFLATRSN [PRPH]"
categorylabel = "criterion met"

[[record]]
sequencedata = "VYTRHGVPISVTGIAQVKIQGQNK [FLOT1]"
categorylabel = "criterion not met"

[[record]]
sequencedata = "AIDMFIIGATFTDWFTSYVKNVVS [FBXO3]"
categorylabel = "criterion not met"

[[record]]
sequencedata = "RGSRGAPPPLGPVVPVLVFPPDLV [MOSPD3]"
categorylabel = "criterion not met"

[[record]]
sequencedata = "HHFFCDIAPVLKLASHHNHFSQIV [OR10K2]"
categorylabel = "criterion not met"

[[record]]
sequencedata = "LVVLVVAVVASSVNSYYSSPAQQV [TOR1AIP2]"
categorylabel = "criterion not met"

[[record]]
sequencedata = "SRPTGQQLESLGLLAPGEQSLPCT [KISS1]"
categorylabel = "criterion met"

[[record]]
sequencedata = "GDWAPPPEGGMEQALAGASSGREL [ZNF263]"
categorylabel = "criterion met"

[[record]]
sequencedata = "FFFDRNPGAFGTILTFLRAGKLRL [KCNG1]"
categorylabel = "criterion not met"

[[record]]
sequencedata = "LQLKETLATQEPTDNQVRLRKRKE [DLC1]"
categorylabel = "criterion met"

[[record]]
sequencedata = "FLKEYFPIEVVTEGLLNTYQELLG [NLN]"
categorylabel = "criterion not met"

[[record]]
sequencedata = "QTFLDERTPRLMPDKESMYYPRVQ [GDAP1]"
categorylabel = "criterion not met"

[[record]]
sequencedata = "KPAFIGKTNLDGMITVQLPEVPAN [PTPRD]"
categorylabel = "criterion not met"

[[record]]
sequencedata = "RALESELQQLRARLQGLEADCVRG [PBXIP1]"
categorylabel = "criterion not met"

[[record]]
sequencedata = "ASRVSKVNDKRRKKSGEKEQHISK [KMT2E]"
categorylabel = "criterion met"

[[record]]
sequencedata = "VAQRSGCEERWLVIDRKVYNISEF [FADS1]"
categorylabel = "criterion not met"

[[record]]
sequencedata = "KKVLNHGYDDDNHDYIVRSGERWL [DYRK1B]"
categorylabel = "criterion not met"

[[record]]
sequencedata = "HWRECLFYPALWPQLRICLRVSPA [FBXO33]"
categorylabel = "criterion not met"

[[record]]
sequencedata = "RQQVTNHGRGTEVLLEEPLPLETA [ZNF263]"
categorylabel = "criterion met"

[[record]]
sequencedata = "NKLTTLPSDFCGLTHLVKLDLSKN [LRRC59]"
categorylabel = "criterion not met"


----------
# protein stability index annotations
# testDetails: protein stability index of a GFP-peptide fusion (GPS, HEK-293T) (PSI 1-6); higher = more stable
# assayContext: treatment: DMSO; c terminus: a fixed tail appended
metricName: protein stability index

[[record]]
sequencedata = "IGLGHIYSGTFALIGAAAFLGGVV [CLCN6]"
metricname = "protein stability index"
result = 2.94

[[record]]
sequencedata = "GMLDVADESLTDLEAQPYEAVFLR [P3H4]"
metricname = "protein stability index"
result = 4.02

[[record]]
sequencedata = "LSILRHQNLLKELQDLALQGAKER [CHGA]"
metricname = "protein stability index"
result = 3.02


Recorded values, source the supplement of paper PMC10567573.
